Tested on: Lemna minor
Assay: Phytotoxicity against Lemna minor L. at 5 ppm
Assay type: functional
Active and inactive are the calls of the source. The rule behind the calls is not given here.

{"columns": ["smilesRepr", "Activity"],
 "data": [
  ["CC(=O)O[C@H]1C[C@@H]2[C@@]3(CC4=C[C@@H](O)[C@H](NC(=O)c5ccccc5)C(C)(C)[C@@H]41)O[C@H]3C[C@]1(C)[C@@H]([C@H](C)N(C)C)CC[C@@]21C", "57%"],
  ["CC(=O)O[C@H]1C[C@@H]2[C@@]3(CC4=C[C@@H](OC(C)=O)[C@H](NC(=O)c5ccccc5)C(C)(C)[C@@H]41)O[C@H]3C[C@]1(C)[C@@H]([C@H](C)N(C)C)CC[C@@]21C", "57%"],
  ["CN[C@H]1CC[C@]23C[C@]24CC[C@]2(C)C(=O)CC[C@@]2(C)[C@@H]4CC[C@H]3C1(C)C", "inactive"],
  ["CC(=O)O[C@H]1C[C@@H]2[C@H](CC[C@]3(C)[C@@H]([C@H](C)N(C)C)CC[C@@]23C)CC2=C[C@@H](O)[C@H](NC(=O)c3ccccc3)C(C)(C)[C@@H]21", "inactive"],
  ["C[C@@H]([C@H]1CC[C@@]2(C)[C@@H]3CC[C@@H]4C(=CC3=CC[C@]12C)CC[C@H](N)C4(C)C)N(C)C", "inactive"]
]}
